Taken from patent US20250136619A1.

Reported Kd, BTK (Homo sapiens (Human)).

**Query** For the compound Cc1c(NC(=O)c2ccc(C3CC3)cc2F)cc(F)cc1-c1ncnc(N)c1OCCN(C)C(=O)/C=C/CN1CCC(OCCOCCOCCNS(=O)(=O)c2ccc(Nc3ncc(Br)c(Nc4cccc(F)c4C(N)=O)n3)cc2)CC1 , what Kd is on record?
**Result** < 50 nM

**Query** For the compound Cc1sc2c(c1C)C(c1ccc(Cl)cc1)=N[C@@H](CC(=O)NCCOCCOC/C=C/C(=O)N1CCC[C@@H](n3nc(-c4ccc(Oc5ccccc5)cc4)c4c(N)ncnc43)C1)c1nnc(C)n1-2 , what Kd is on record?
**Result** < 50 nM

**Query** For the compound C[C@@H]1COCCN1c1nc(N2CCOC[C@H]2C)c2ccc(-c3cccc(C(=O)NCCCCCCCC/C=C/C(=O)N4CCC[C@@H](n5nc(-c6ccc(Oc7ccccc7)cc6)c6c(N)ncnc65)C4)c3)nc2n1 , what Kd is on record?
**Result** 50 to 500 nM

**Query** For the compound C[C@@H]1COCCN1c1nc(N2CCOC[C@H]2C)c2ccc(-c3cccc(C(=O)NCCOCCOCCOCCOCCOCCOCCOCCOC/C=C/C(=O)N4CCC[C@@H](n5nc(-c6ccc(Oc7ccccc7)cc6)c6c(N)ncnc65)C4)c3)nc2n1 , what Kd is on record?
**Result** < 50 nM
